result.type: melting point

Challenge: Output melting point of O=S1(=O)NCN(C2CCCCC2)c2cc(Cl)c(Cl)cc21
Response given: 207 to 209 °C

====

Recorded measurements of melting point, one per entry
Quick reminder: number only, in °C, skip the unit.

CC(Oc1c(C(=O)O)cc(Cl)cc1[N+](=O)[O-])C(=O)O (centres undefined)    190

# input for lookup
Challenge: Output melting point of ON=C(c1cc(F)cc(F)c1)c1cccc2nc(N[C@@H]3CCc4ccccc43)ccc12
Response given: 120

====

result.type: melting point

Cc1c(C)c2c(c(C)c1NC(=O)CC(C)(C)C)OC(C)(C)C2c1ccc(C(C)C)cc1 (centres undefined)    128 to 129 °C

Challenge: Output melting point of N#CCc1c(Cl)nc(-c2ccccc2)n1Cc1ccccc1
Response given: 121 to 122 °C

Challenge: Output melting point of CCOCc1nc2c(N)nc3ccccc3c2n1CC1(OCCS(C)(=O)=O)CCCCC1
Response given: 159 to 161 °C

Challenge: Output melting point of Cc1nc(N)nc(N)c1CCC(C)c1ccc(Cl)cc1Cl (centres undefined)
Response given: 164 to 168 °C

Data origin: a melting point compilation (Tetko et al.; mined from patent text by program, amines drawn as free bases though some values may be those of a salt)
